Values were extracted from ChEMBL document CHEMBL1147000.

experiment.description: Inhibition of gamma secretase mediated Notch1 signalling in NIH3T3 cells
Format: functional, cell-based
condition.parameters: Mus musculus
measured.quantity: pIC50
// field semantics: pIC50 = negative decimal log of concentration (mol/L)

These solved cases illustrate the format of a correct answer.
Need pIC50, item CCC[C@H](C(N)=O)[C@@H](CC(C)C)C(=O)N[C@H]1CCCCN(Cc2cccc(Oc3ccccc3)c2)C1=O 7.09

Need pIC50, item CCCC(C(N)=O)C(CC(C)C)C(=O)N[C@H]1CCCCN(Cc2cccc(-c3ccc(F)c(Cl)c3)c2)C1=O (single isomer, unassigned) 7.74

Below: the item to evaluate.
Need pIC50, item CCC[C@H](C(N)=O)[C@@H](CC(C)C)C(=O)N[C@H]1CCCCN(Cc2cccc(Nc3ccccc3)c2)C1=O 7.19

* * *

experiment.description: Half life in Beagle dog at 0.5 mg/kg, po
Assay type: ADME, organism-based, Canis lupus familiaris
Parameters: dose 0.5 mg/kg, route oral
condition.parameters: in vivo
Reported half-life values are given for each entry in this list.
Kindly format the answer as number then unit.

Need half-life, item CCC[C@H](C(N)=O)[C@@H](CC(C)C)C(=O)N[C@H]1CCCCN(Cc2cccc(Oc3ccccc3)c2)C1=O 30 min

Below: the item to evaluate.
Need half-life, item CCC[C@H](C(N)=O)[C@@H](CC(C)C)C(=O)N[C@H]1CCCCN(Cc2cccc(Nc3ccccc3)c2)C1=O 60 min

* * *

experiment.description: Clearance in Beagle dog at 0.5 mg/kg, po
Type: ADME, organism-based, Canis lupus familiaris
Parameters: dose 0.5 mg/kg, route oral
condition.parameters: in vivo
measured.quantity: CL/F (mL/min/kg)
Form entry: value (mL/min/kg) — number only.

Need CL/F, item CCC[C@H](C(N)=O)[C@@H](CC(C)C)C(=O)N[C@H]1CCCCN(Cc2cccc(Oc3ccccc3)c2)C1=O 31.7

Below: the item to evaluate.
Need CL/F, item CCC[C@H](C(N)=O)[C@@H](CC(C)C)C(=O)N[C@H]1CCCCN(Cc2cccc(Nc3ccccc3)c2)C1=O 10

* * *

experiment.description: Oral bioavailability in Beagle dog at 0.5 mg/kg, po
Assay type: ADME, organism-based, Canis lupus familiaris
condition.parameters: in vivo
Reported bioavailability values are given for each entry in this list.

Need bioavailability, item CCC[C@H](C(N)=O)[C@@H](CC(C)C)C(=O)N[C@H]1CCCCN(Cc2cccc(Oc3ccccc3)c2)C1=O 8%

***
Need bioavailability, item CCC[C@H](C(N)=O)[C@@H](CC(C)C)C(=O)N[C@H]1CCCCN(Cc2cccc(Nc3ccccc3)c2)C1=O 3%

* * *

Reported fraction unbound values are given for each entry in this list.
experiment.description: Percent of unbound ligand in Beagle dog at 0.5 mg/kg, po
Format: ADME, organism-based, Canis lupus familiaris
Design: dose 0.5 mg/kg, route oral
condition.parameters: in vivo

Need fraction unbound, item CCC[C@H](C(N)=O)[C@@H](CC(C)C)C(=O)N[C@H]1CCCCN(Cc2cccc(Oc3ccccc3)c2)C1=O 0.004

Below: the item to evaluate.
Need fraction unbound, item CCC[C@H](C(N)=O)[C@@H](CC(C)C)C(=O)N[C@H]1CCCCN(Cc2cccc(Nc3ccccc3)c2)C1=O 0.015

* * *

target.of.assay: Collagenase 3 (Homo sapiens, UniProt P45452)
measured.quantity: Ki (nM)
Form entry: value (nM) — number only.

Provide the documented Ki with Collagenase 3 (Homo sapiens, UniProt P45452) as the system for CCC[C@H](C(=O)NO)[C@@H](CC(C)C)C(=O)N[C@H]1CCCCN(Cc2cccc(Oc3ccccc3)c2)C1=O 10

* * *

target.of.assay: Matrix metalloproteinase-14 (Homo sapiens, UniProt P50281)
measured.quantity: pKi
// field semantics: pKi = negative decimal log of concentration (mol/L)

Provide the documented pKi with Matrix metalloproteinase-14 (Homo sapiens, UniProt P50281) as the system for CCC[C@H](C(=O)NO)[C@@H](CC(C)C)C(=O)N[C@H]1CCCCN(Cc2cccc(Oc3ccccc3)c2)C1=O 5.92

* * *

experiment.description: Oral bioavailability in Beagle dog at 1 mg/kg, po
Assay type: ADME, organism-based, Canis lupus familiaris
condition.parameters: in vivo
measured.quantity: bioavailability (%)
Form entry: value (%) — number only.

Need bioavailability, item CCCC(C(N)=O)C(CC(C)C)C(=O)N[C@H]1CCCCN(Cc2cccc(-c3ccc(F)c(Cl)c3)c2)C1=O (single isomer, unassigned) 25
